# experimental-protocol: SK-BR-3 cell growth inhibitors, pilot screen, 24 h, human (AID 572);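 further: compound exposure lasted between 18 and 24 h rather than exactly 24 h; 100% = carrier-treated control wells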
# condition-set: SK-BR-3 viability, CellTiter-Glo luminescence, at 10 µM, active compounds read low
Calls of active or inactive are those of the source.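 How the source made its calls: active means viability at or below 10% of carrier control in both of two separate runs; inconclusive means viability at or below 10% in only one of the two runs; inactive means the rest.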
Readings of viability for the listed molecules

{"columns": ["molecule", "viability"],
 "data": [
  ["CC(C)(C)c1nc(CN2CCOCC2)ccc1O", "109% (inactive)"],
  ["COc1cccc(OCCOCCN(C)CCO)c1", "124% (inactive)"],
  ["Cc1ccc(-c2nnc3c4ccccc4c(C)nn23)cc1NC(=O)c1ccco1", "81.5% (inactive)"]
]}

Ask | Suppose we examine the molecule "Cc1ccc(OCCN2CCN(C(=O)CCC(=O)Nc3nnc(C)s3)CC2)cc1" ; what viability value has been reported?
Reply | 88% (inactive)

Ask | Try this molecule next: "O=C(Nc1nccs1)c1ccc(Cl)c(S(=O)(=O)N2CCCCC2)c1"
Reply | 89% (inactive)

Ask | Try this molecule next: "CC1(C)CC(=O)c2cnc(NC(=O)CSc3nc4ccccc4o3)nc2C1"
Reply | 96% (inactive)

Ask | Try this molecule next: "CCOC(=O)Cn1nnnc1CN(Cc1ccc(OC)cc1)Cc1cc2cc(C)ccc2[nH]c1=O"
Reply | 101% (inactive)

Ask | Try this molecule next: COCCc1ccc(OCC(O)CNC(C)C)cc1 (centres undefined)
Reply | 117% (inactive)

Ask | Try this molecule next: "Cc1cc(Cl)ccc1OCC(=O)Nn1c(C)ccc1C"
Reply | 68% (inactive)

Ask | Try this molecule next: CC(C)(C)OC(=O)N1CC=C2C(C#N)=C(N)C(C#N)(C#N)C(c3cccs3)C2C1 (centres undefined)
Reply | 65% (inactive)

Ask | Try this molecule next: "COCCNC(=O)NC(=O)COC(=O)Cc1ccc2c(c1)OCCO2"
Reply | 81% (inactive)
